# Tested on: MDA-MB-231 breast
# procedure text: NCI tumour cell line growth inhibition, 48 h
Listed next: entries and their corresponding TGI.

Some compounds with known TGI results, for comparison:
>  <record smiles>
N/C(CSCCSC/C(N)=N/O)=N\O

>  <system under test>
MDA-MB-231 breast

>  <TGI>
> 100 µM

$$$$
>  <record smiles>
COc1cc(/C=C/C(=O)O)ccc1OS(=O)(=O)O

>  <system under test>
MDA-MB-231 breast

>  <TGI>
> 100 µM

$$$$

Lab note: next compound to report on.
I am curious: what TGI value has been reported for CCN(CC)C(=S)SS(=O)(=O)c1ccc(C)cc1 ? > 100 µM
